Source of measurements: the supplement of paper PMC10065799

Target: Fes (UniProt P07332)
Sequence (P07332 whole entry, looked up): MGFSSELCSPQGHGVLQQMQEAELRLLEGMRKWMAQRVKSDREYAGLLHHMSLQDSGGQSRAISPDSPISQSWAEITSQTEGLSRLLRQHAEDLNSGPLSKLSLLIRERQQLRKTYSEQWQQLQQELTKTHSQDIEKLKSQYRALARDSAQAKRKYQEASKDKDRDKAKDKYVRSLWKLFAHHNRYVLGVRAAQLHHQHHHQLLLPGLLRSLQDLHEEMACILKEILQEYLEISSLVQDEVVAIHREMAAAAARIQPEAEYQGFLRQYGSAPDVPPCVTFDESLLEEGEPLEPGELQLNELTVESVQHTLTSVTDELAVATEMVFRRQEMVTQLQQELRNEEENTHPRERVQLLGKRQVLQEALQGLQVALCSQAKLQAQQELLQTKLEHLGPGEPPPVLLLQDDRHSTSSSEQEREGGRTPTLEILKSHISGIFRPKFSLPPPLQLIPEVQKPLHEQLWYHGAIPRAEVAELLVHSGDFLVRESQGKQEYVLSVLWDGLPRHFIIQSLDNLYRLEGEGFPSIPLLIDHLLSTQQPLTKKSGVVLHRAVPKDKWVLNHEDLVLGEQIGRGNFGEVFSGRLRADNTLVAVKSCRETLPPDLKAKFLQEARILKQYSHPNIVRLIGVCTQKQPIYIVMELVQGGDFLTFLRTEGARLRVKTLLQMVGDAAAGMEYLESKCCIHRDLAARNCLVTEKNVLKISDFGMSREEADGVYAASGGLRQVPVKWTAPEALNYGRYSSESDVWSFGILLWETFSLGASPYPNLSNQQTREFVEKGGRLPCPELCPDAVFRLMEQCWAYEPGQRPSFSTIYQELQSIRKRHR
Test: phosphorylation enrichment, bacterial display (enrichment ratio); higher = better substrate or ligand; peptides without Tyr show the background;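 further: 11-residue human phosphosite peptides and single-mutation variants displayed on the E. coli surface, counted by deep sequencing, each peptide's frequency after selection divided by its frequency in the unselected input library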;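 further: frequency after pTyr selection over input frequency; kinase dosed for 20-30% of maximal phosphorylation in three min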
Recorded phosphorylation enrichment for the following sequences
Readout Name: phosphorylation enrichment

• CTTIHYNFMCF [TP53_Y234_N239Y_YF] = 1.12
• ITVCDYTNPCP [MYD88_Y276_T281P] = 0.829
• ALRASYTPSPV [ESS2_Y418_A423V] = 0.723
• PSAELYSNALP [PDGFRB_Y716] = 1.79
• TDLAYYLVCKG [ASL_Y376_R379C] = 1.57
• AIMSFYAALID [RYR1_Y2426] = 1.48
• FRVDCYKNFVA [FHL1_Y213_C209R_YF] = 1.49
• STSKTYVISQT [RBBP6_Y87_R91Q] = 0.694
• LSSETYVKSYT [F5_Y2149_M2148T] = 0.902
• SVTWTYSPALN [TP53_Y126_C124W] = 1.11
• HLEKKYVHRDS [CSF1R_Y708_R710H] = 0.612
• KLLPEYPGILS [DHFR2_Y163_V166I] = 0.832
• ILGRFYETGSI [PAX2_Y73_YF] = 0.779
• STTIHYNFMCN [TP53_Y234_C229S_YF] = 1.19
• ANYTEYVATRW [CDKL5_Y171] = 0.96
• ISKKIYDPIHD [CTNNA3_Y614_T616P] = 0.694
• LSQAKYQIRFR [CRLF1_Y272_F268S_YF] = 0.672
• RRNNSYTCFTA [SLC20A2_Y386_YF] = 1.68
• SIKDKYVTAVY [KCNH2_Y611_L615V] = 0.705
• EVEPTYVVLYD [ERCC4_Y577_R576T] = 1.13
• ATVRPYRPFII [LRP5_Y1528_A1525V_YF] = 0.61
• LAARFYNWVSF [FLT4_Y1231_YF] = 1.55
• ISIFRYAKGQP [MPZ_Y82_H81R] = 0.937
• DLDLTSIFPNI [PTEN_Y27_Y27S_YF] = 0.814
• GLALRCLSDHS [VWF_Y1584_Y1584C] = 1.16
• SAEKAYHEQLS [TUBA1A_Y282] = 0.844
• RAIELCNDKEK [OTULIN_Y244_Y244C] = 1.38
• DIPIRYSITGV [CDH4_Y205] = 0.827
